All values here come from PubChem BioAssay AID1963424.

# System: 327498-153-R-J2-PDC complex spheroid growth, % test/control
# ASSAY_OVERVIEW: Anticancer human tumor 327498-153-R-J2-PDC patient-derived uterine carcinosarcoma cell line growth inhibition [Asc]
# STATED_CONDITIONS: curve of first compound; second compound 3.16 µM
ASSAY_READOUT: IC50 (nM)
// units = nM; emit number, no label

These recorded examples may help you get a feel for the data.
MOLECULE	IC50, nM
Cc1nc(N2CCC3(CC2)COC(C)C3N)c(CO)nc1Sc1ccnc(N)c1Cl (stereo not given) + Cc1c(S(C)(=O)=O)c(-c2cc(F)cc(N3CCN(c4ccc(NS(=O)(=O)c5ccc(NC(CCN6CCC(C(=O)OCCCP(=O)(O)O)CC6)CSc6ccccc6)c(S(=O)(=O)C(F)(F)F)c5)cc4)CC3)c2)c(-c2ccc(Cl)cc2)n1C(C)C	829
C=C(F)C(=O)N1CCN(c2nc(OCC3CCCN3C)nc3c2CCN(c2cccc4cccc(Cl)c24)C3)CC1CC#N (stereo not given) + Cc1c(S(C)(=O)=O)c(-c2cc(F)cc(N3CCN(c4ccc(NS(=O)(=O)c5ccc(NC(CCN6CCC(C(=O)OCCCP(=O)(O)O)CC6)CSc6ccccc6)c(S(=O)(=O)C(F)(F)F)c5)cc4)CC3)c2)c(-c2ccc(Cl)cc2)n1C(C)C	512
C#Cc1c(F)ccc2cc(O)cc(-c3ncc4c(N5CC6CCC(C5)N6)nc(OCC56CCCN5CC(F)C6)nc4c3F)c12 (stereo not given) + Cc1c(S(C)(=O)=O)c(-c2cc(F)cc(N3CCN(c4ccc(NS(=O)(=O)c5ccc(NC(CCN6CCC(C(=O)OCCCP(=O)(O)O)CC6)CSc6ccccc6)c(S(=O)(=O)C(F)(F)F)c5)cc4)CC3)c2)c(-c2ccc(Cl)cc2)n1C(C)C	5040

Lab note: next molecule to report on.
Form field: reported IC50 of Cn1ncnc1[C@H]1c2n[nH]c(=O)c3cc(F)cc(c23)N[C@@H]1c1ccc(F)cc1 + Cc1c(S(C)(=O)=O)c(-c2cc(F)cc(N3CCN(c4ccc(NS(=O)(=O)c5ccc(NC(CCN6CCC(C(=O)OCCCP(=O)(O)O)CC6)CSc6ccccc6)c(S(=O)(=O)C(F)(F)F)c5)cc4)CC3)c2)c(-c2ccc(Cl)cc2)n1C(C)C
8.06

###

# System: 327498-153-R-J2-PDC complex spheroid growth, % test/control
# ASSAY_OVERVIEW: Anticancer human tumor 327498-153-R-J2-PDC cell line growth inhibition [Asc];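 further: spheroids exposed to compound for 7 days after 3 days of growth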;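 on viability, T/C: 100% = DMSO vehicle control wells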
# STATED_CONDITIONS: second compound 3 µM; first compound 3.16 µM; stronger effect = lower value
Recorded viability, T/C, one value per entry.
// units = %; emit number, no label

MOLECULE	EXPERIMENTAL_TARGET	viability, T/C (%)
C#Cc1c(F)ccc2cc(O)cc(-c3ncc4c(N5CC6CCC(C5)N6)nc(OCC56CCCN5CC(F)C6)nc4c3F)c12 (centres undefined) + CCN1C(C(=O)NC23CCC(C(=O)O)(CC2)CC3)C(c2cccc(Cl)c2F)C2(C(=O)Nc3cc(Cl)ccc32)C12CCCCC2	327498-153-R-J2-PDC complex spheroid growth, % test/control	1.14
C=C(F)C(=O)N1CCN(c2nc(OCC3CCCN3C)nc3c2CCN(c2cccc4cccc(Cl)c24)C3)CC1CC#N (centres undefined) + CCN1C(C(=O)NC23CCC(C(=O)O)(CC2)CC3)C(c2cccc(Cl)c2F)C2(C(=O)Nc3cc(Cl)ccc32)C12CCCCC2	327498-153-R-J2-PDC complex spheroid growth, % test/control	0.14
C=CC(=O)N1CCN(c2nc(=O)n(-c3c(C)ccnc3C(C)C)c3nc(-c4c(O)cccc4F)c(F)cc23)C(C)C1 (centres undefined) + CCN1C(C(=O)NC23CCC(C(=O)O)(CC2)CC3)C(c2cccc(Cl)c2F)C2(C(=O)Nc3cc(Cl)ccc32)C12CCCCC2	327498-153-R-J2-PDC complex spheroid growth, % test/control	3.23

Lab note: next molecule to report on.
Form field: reported viability, T/C of O=C(c1cc(Cc2n[nH]c(=O)c3ccccc23)ccc1F)N1CCN(C(=O)C2CC2)CC1 + CCN1C(C(=O)NC23CCC(C(=O)O)(CC2)CC3)C(c2cccc(Cl)c2F)C2(C(=O)Nc3cc(Cl)ccc32)C12CCCCC2
2.26

###

Recorded viability, T/C, one value per entry.
# Tested on: 327498-153-R-J2-PDC complex spheroid growth, % test/control
# ASSAY_OVERVIEW: Anticancer human tumor 327498-153-R-J2-PDC cell line growth inhibition [Asc];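 further: spheroids exposed to compound for 7 days after 3 days of growth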;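 on viability, T/C: 100% = DMSO vehicle control wells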
# STATED_CONDITIONS: second compound 1 µM; first compound 0.03 µM; stronger effect = lower value

COMPOUND	EXPERIMENTAL_TARGET	ASSAY_READOUT	RESULT
NC(=O)C(=Cn1cnc(-c2cc(C(F)(F)F)cc(C(F)(F)F)c2)n1)c1cncnc1 + CNC(C)C(=O)NC1CN(S(=O)(=O)c2cccc(S(=O)(=O)N3CCC4CCC(C(=O)NC(c5ccccc5)c5ccccc5)N4C(=O)C(NC(=O)C(C)NC)C3)c2)CCC2CCC(C(=O)NC(c3ccccc3)c3ccccc3)N2C1=O	327498-153-R-J2-PDC complex spheroid growth, % test/control	viability, T/C	75.2%

Lab note: next compound to report on.
Form field: reported viability, T/C of Cc1nc(N2CCC3(CC2)COC(C)C3N)c(CO)nc1Sc1ccnc(N)c1Cl (configuration not stated) + CNC(C)C(=O)NC1CN(S(=O)(=O)c2cccc(S(=O)(=O)N3CCC4CCC(C(=O)NC(c5ccccc5)c5ccccc5)N4C(=O)C(NC(=O)C(C)NC)C3)c2)CCC2CCC(C(=O)NC(c3ccccc3)c3ccccc3)N2C1=O
87.7%

###

# Tested on: 327498-153-R-J2-PDC complex spheroid growth, % test/control
# ASSAY_OVERVIEW: Anticancer human tumor 327498-153-R-J2-PDC cell line growth inhibition [Asc];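 further: spheroids exposed to compound for 7 days after 3 days of growth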;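 on viability, T/C: 100% = DMSO vehicle control wells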
# STATED_CONDITIONS: second compound 0.0316 µM; first compound 0.1 µM; stronger effect = lower value
Recorded viability, T/C, one value per entry.
// units = %; emit number, no label

These recorded examples may help you get a feel for the data.
COMPOUND	viability, T/C (%)
O=C(c1ccc(F)c(F)c1Nc1ccc(I)cc1F)N1CC(O)([C@@H]2CCCCN2)C1 + CNC(C)C(=O)NC1CN(S(=O)(=O)c2cccc(S(=O)(=O)N3CCC4CCC(C(=O)NC(c5ccccc5)c5ccccc5)N4C(=O)C(NC(=O)C(C)NC)C3)c2)CCC2CCC(C(=O)NC(c3ccccc3)c3ccccc3)N2C1=O	76.4
O=C(c1cc(Cc2n[nH]c(=O)c3ccccc23)ccc1F)N1CCN(C(=O)C2CC2)CC1 + CNC(C)C(=O)NC1CN(S(=O)(=O)c2cccc(S(=O)(=O)N3CCC4CCC(C(=O)NC(c5ccccc5)c5ccccc5)N4C(=O)C(NC(=O)C(C)NC)C3)c2)CCC2CCC(C(=O)NC(c3ccccc3)c3ccccc3)N2C1=O	100
C=C(F)C(=O)N1CCN(c2nc(OCC3CCCN3C)nc3c2CCN(c2cccc4cccc(Cl)c24)C3)CC1CC#N (stereo not given) + CNC(C)C(=O)NC1CN(S(=O)(=O)c2cccc(S(=O)(=O)N3CCC4CCC(C(=O)NC(c5ccccc5)c5ccccc5)N4C(=O)C(NC(=O)C(C)NC)C3)c2)CCC2CCC(C(=O)NC(c3ccccc3)c3ccccc3)N2C1=O	71.6
NC1CCC(NC2CC2c2ccccc2)CC1 (stereo not given) + CNC(C)C(=O)NC1CN(S(=O)(=O)c2cccc(S(=O)(=O)N3CCC4CCC(C(=O)NC(c5ccccc5)c5ccccc5)N4C(=O)C(NC(=O)C(C)NC)C3)c2)CCC2CCC(C(=O)NC(c3ccccc3)c3ccccc3)N2C1=O	101

Lab note: next compound to report on.
Form field: reported viability, T/C of COc1c(OCCCN2CCOCC2)ccc2c3n(c(=NC(=O)c4cnc(N)nc4)nc12)CCN3 + CNC(C)C(=O)NC1CN(S(=O)(=O)c2cccc(S(=O)(=O)N3CCC4CCC(C(=O)NC(c5ccccc5)c5ccccc5)N4C(=O)C(NC(=O)C(C)NC)C3)c2)CCC2CCC(C(=O)NC(c3ccccc3)c3ccccc3)N2C1=O
62.1

###

# Test system: 327498-153-R-J2-PDC complex spheroid growth, % test/control
# ASSAY_OVERVIEW: Anticancer human tumor 327498-153-R-J2-PDC cell line growth inhibition [Asc]; active means viability on the fitted dose curve at most 10% of control; inactive means the rest;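 further: spheroids exposed to compound for 7 days after 3 days of growth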
# STATED_CONDITIONS: second compound 1 µM; first compound 1 µM
Allowed answers: 1 for active, 0 for inactive

Examples with answers:
MOLECULE	CAT
C#Cc1c(F)ccc2cc(O)cc(-c3ncc4c(N5CC6CCC(C5)N6)nc(OCC56CCCN5CC(F)C6)nc4c3F)c12 (centres undefined) + Cc1c(S(C)(=O)=O)c(-c2cc(F)cc(N3CCN(c4ccc(NS(=O)(=O)c5ccc(NC(CCN6CCC(C(=O)OCCCP(=O)(O)O)CC6)CSc6ccccc6)c(S(=O)(=O)C(F)(F)F)c5)cc4)CC3)c2)c(-c2ccc(Cl)cc2)n1C(C)C	0
CCN1CCN(Cc2ccc(Nc3ncc(F)c(-c4cc(F)c5nc(C)n(C(C)C)c5c4)n3)nc2)CC1 + Cc1c(S(C)(=O)=O)c(-c2cc(F)cc(N3CCN(c4ccc(NS(=O)(=O)c5ccc(NC(CCN6CCC(C(=O)OCCCP(=O)(O)O)CC6)CSc6ccccc6)c(S(=O)(=O)C(F)(F)F)c5)cc4)CC3)c2)c(-c2ccc(Cl)cc2)n1C(C)C	0
COc1c(OCCCN2CCOCC2)ccc2c3n(c(=NC(=O)c4cnc(N)nc4)nc12)CCN3 + CNC(C)C(=O)NC1CN(S(=O)(=O)c2cccc(S(=O)(=O)N3CCC4CCC(C(=O)NC(c5ccccc5)c5ccccc5)N4C(=O)C(NC(=O)C(C)NC)C3)c2)CCC2CCC(C(=O)NC(c3ccccc3)c3ccccc3)N2C1=O	1

What outcome does the record of this test show for C#Cc1c(F)ccc2cc(O)cc(-c3ncc4c(N5CC6CCC(C5)N6)nc(OCC56CCCN5CC(F)C6)nc4c3F)c12 (centres undefined) + CNC(C)C(=O)NC1CN(S(=O)(=O)c2cccc(S(=O)(=O)N3CCC4CCC(C(=O)NC(c5ccccc5)c5ccccc5)N4C(=O)C(NC(=O)C(C)NC)C3)c2)CCC2CCC(C(=O)NC(c3ccccc3)c3ccccc3)N2C1=O ?
0

What outcome does the record of this test show for COc1c(OCCCN2CCOCC2)ccc2c3n(c(=NC(=O)c4cnc(N)nc4)nc12)CCN3 + Cc1c(S(C)(=O)=O)c(-c2cc(F)cc(N3CCN(c4ccc(NS(=O)(=O)c5ccc(NC(CCN6CCC(C(=O)OCCCP(=O)(O)O)CC6)CSc6ccccc6)c(S(=O)(=O)C(F)(F)F)c5)cc4)CC3)c2)c(-c2ccc(Cl)cc2)n1C(C)C ?
1

What outcome does the record of this test show for O=C(c1cc(Cc2n[nH]c(=O)c3ccccc23)ccc1F)N1CCN(C(=O)C2CC2)CC1 + Cc1c(S(C)(=O)=O)c(-c2cc(F)cc(N3CCN(c4ccc(NS(=O)(=O)c5ccc(NC(CCN6CCC(C(=O)OCCCP(=O)(O)O)CC6)CSc6ccccc6)c(S(=O)(=O)C(F)(F)F)c5)cc4)CC3)c2)c(-c2ccc(Cl)cc2)n1C(C)C ?
0

What outcome does the record of this test show for CNC(C)C(=O)NC1CN(S(=O)(=O)c2cccc(S(=O)(=O)N3CCC4CCC(C(=O)NC(c5ccccc5)c5ccccc5)N4C(=O)C(NC(=O)C(C)NC)C3)c2)CCC2CCC(C(=O)NC(c3ccccc3)c3ccccc3)N2C1=O (centres undefined) + Cc1c(S(C)(=O)=O)c(-c2cc(F)cc(N3CCN(c4ccc(NS(=O)(=O)c5ccc(NC(CCN6CCC(C(=O)OCCCP(=O)(O)O)CC6)CSc6ccccc6)c(S(=O)(=O)C(F)(F)F)c5)cc4)CC3)c2)c(-c2ccc(Cl)cc2)n1C(C)C ?
0

What outcome does the record of this test show for O=C(c1ccc(F)c(F)c1Nc1ccc(I)cc1F)N1CC(O)([C@@H]2CCCCN2)C1 + Cc1c(S(C)(=O)=O)c(-c2cc(F)cc(N3CCN(c4ccc(NS(=O)(=O)c5ccc(NC(CCN6CCC(C(=O)OCCCP(=O)(O)O)CC6)CSc6ccccc6)c(S(=O)(=O)C(F)(F)F)c5)cc4)CC3)c2)c(-c2ccc(Cl)cc2)n1C(C)C ?
0

What outcome does the record of this test show for C=CC(=O)N1CCN(c2nc(=O)n(-c3c(C)ccnc3C(C)C)c3nc(-c4c(O)cccc4F)c(F)cc23)C(C)C1 (centres undefined) + Cc1c(S(C)(=O)=O)c(-c2cc(F)cc(N3CCN(c4ccc(NS(=O)(=O)c5ccc(NC(CCN6CCC(C(=O)OCCCP(=O)(O)O)CC6)CSc6ccccc6)c(S(=O)(=O)C(F)(F)F)c5)cc4)CC3)c2)c(-c2ccc(Cl)cc2)n1C(C)C ?
0
